Test system: RS4; 11 cells
protocol: Cell proliferation assay (MTS), RS4; 11 cells
Type: cell-based
condition.set: Homo sapiens, RS4-11, 72 h, read-out: RS4; 11 IC50 (nM)
measurement.type: IC50 (nM)

molecule="CCS(=O)(CC)=NC1CCC(CNc2ccc(S(=O)(=O)NC(=O)c3ccc(N4CCN(CC5=C(c6ccc(Cl)cc6)CC(C)(C)CC5)CC4)cc3Oc3cnc4[nH]ccc4c3)cc2[N+](=O)[O-])CC1 (stereo not shown)" measurement_type=IC50 measurement=5

---

Tested on: DOHH2 cells
protocol: Cell proliferation assay (MTS), DOHH2 cells
Type: cell-based
condition.set: Homo sapiens, DOHH-2, 120 h, read-out: DOHH2 IC50 (nM)
measurement.type: IC50 (nM)

compound="CCS(=O)(CC)=NC1CCC(CNc2ccc(S(=O)(=O)NC(=O)c3ccc(N4CCN(CC5=C(c6ccc(Cl)cc6)CC(C)(C)CC5)CC4)cc3Oc3cnc4[nH]ccc4c3)cc2[N+](=O)[O-])CC1 (stereo not shown) [Example 9B]" measurement=11

---

Tested on: DOHH2 cells
protocol: Cell proliferation assay (MTS), DOHH2 cells
Format: cell-based
condition.set: Homo sapiens, DOHH-2, 120 h, DOHH2 (DSMZ ACC 47) cell proliferation, 5000 cells/well, 120 h, MTS; mechanism-based readout of Bcl-2 inhibition; read-out: DOHH2 IC50
pIC50: −log10 of the molar value.
Tick 1 if pIC50 is 7 or greater. Tick -1 if pIC50 is less than 7.

molecule="CC1(C)CCC(CN2CCN(c3ccc(C(=O)NS(=O)(=O)c4ccc(NCC(CF)N5CCP(C)(=O)CC5)c([N+](=O)[O-])c4)c(Oc4cnc5[nH]ccc5c4)c3)CC2)=C(c2ccc(Cl)cc2)C1 (centres unmarked)" system_name="DOHH2 cells" category_label=-1
molecule=COC(=O)N=S1(=O)CCN(CC[C@H](C)Nc2ccc(S(=O)(=O)NC(=O)c3ccc(N4CCN(CC5=C(c6ccc(Cl)cc6)CC(C)(C)CC5)CC4)cc3Oc3cnc4[nH]ccc4c3)cc2[N+](=O)[O-])CC1 system_name="DOHH2 cells" category_label=1
molecule=CCN=S1(=O)CCN(CC[C@H](C)Nc2ccc(S(=O)(=O)NC(=O)c3ccc(N4CCN(CC5=C(c6ccc(Cl)cc6)CC(C)(C)CC5)CC4)cc3Oc3cnc4[nH]ccc4c3)cc2[N+](=O)[O-])CC1 system_name="DOHH2 cells" category_label=1

---

// reported IC50 per item
Test system: DOHH2 cells
protocol: Cell proliferation assay (MTS), DOHH2 cells
Assay type: cell-based
condition.set: Homo sapiens, DOHH-2, 120 h, DOHH2 (DSMZ ACC 47) cell proliferation, 5000 cells/well, 120 h, MTS; mechanism-based readout of Bcl-2 inhibition; read-out: DOHH2 IC50
measurement.type: IC50 (nM)

molecule=CCN=S1(=O)CCN(CCNc2ccc(S(=O)(=O)NC(=O)c3ccc(N4CCN(CC5=C(c6ccc(Cl)cc6)CC(C)(C)CC5)CC4)cc3Oc3cnc4[nH]ccc4c3)cc2[N+](=O)[O-])CC1 measurement_type=IC50 measurement=38
molecule="CC1(C)CCC(CN2CCN(c3ccc(C(=O)NS(=O)(=O)c4cnc(NCC5CCC(N=S(C)(C)=O)CC5)c([N+](=O)[O-])c4)c(Oc4cnc5[nH]ccc5c4)c3)CC2)=C(c2ccc(Cl)cc2)C1 (stereo not drawn)" measurement_type=IC50 measurement=29
molecule=COC(=O)N=S1(=O)CCN(CC[C@H](C)Nc2ccc(S(=O)(=O)NC(=O)c3ccc(N4CCN(CC5=C(c6ccc(Cl)cc6)CC(C)(C)CC5)CC4)cc3Oc3cnc4[nH]ccc4c3)cc2S(=O)(=O)C(F)(F)F)CC1 measurement_type=IC50 measurement=53
molecule=C[C@@H](CCN1CCS(=O)(=NC(=O)C2CC2)CC1)Nc1ccc(S(=O)(=O)NC(=O)c2ccc(N3CCN(CC4=C(c5ccc(Cl)cc5)CC(C)(C)CC4)CC3)cc2Oc2cnc3[nH]ccc3c2)cc1S(=O)(=O)C(F)(F)F measurement_type=IC50 measurement=255
molecule=CC(C)C(=O)N=S1(=O)CCN(CC[C@H](C)Nc2ccc(S(=O)(=O)NC(=O)c3ccc(N4CCN(CC5=C(c6ccc(Cl)cc6)CC(C)(C)CC5)CC4)cc3Oc3cnc4[nH]ccc4c3)cc2[N+](=O)[O-])CC1 measurement_type=IC50 measurement=18
molecule=COC(=O)N=S1(=O)CCN(CCNc2ccc(S(=O)(=O)NC(=O)c3ccc(N4CCN(CC5=C(c6ccc(Cl)cc6)CC(C)(C)CC5)CC4)cc3Oc3cnc4[nH]ccc4c3)cc2[N+](=O)[O-])CC1 measurement_type=IC50 measurement=271
molecule="CC1(C)CCC(CN2CCN(c3ccc(C(=O)NS(=O)(=O)c4ccc(NCC5CCS(=O)(=NC6CC6)CC5)c([N+](=O)[O-])c4)c(Oc4cnc5[nH]ccc5c4)c3)CC2)=C(c2ccc(Cl)cc2)C1 (stereo not drawn)" measurement_type=IC50 measurement=92
molecule=C[C@@H](CN1CCS(=O)(=NC2CC2)CC1)Nc1ccc(S(=O)(=O)NC(=O)c2ccc(N3CCN(CC4=C(c5ccc(Cl)cc5)CC(C)(C)CC4)CC3)cc2Oc2cnc3[nH]ccc3c2)cc1[N+](=O)[O-] measurement_type=IC50 measurement=163
molecule=CN=S1(=O)CCN(C[C@H](C)Nc2ccc(S(=O)(=O)NC(=O)c3ccc(N4CCN(CC5=C(c6ccc(Cl)cc6)CC(C)(C)CC5)CC4)cc3Oc3cnc4[nH]ccc4c3)cc2[N+](=O)[O-])CC1 measurement_type=IC50 measurement=111
molecule="CC1(C)CCC(CN2CCN(c3ccc(C(=O)NS(=O)(=O)c4ccc(NCC5CCC(N=S6(=O)CCOCC6)CC5)c([N+](=O)[O-])c4)c(Oc4cnc5[nH]ccc5c4)c3)CC2)=C(c2ccc(Cl)cc2)C1 (stereo not drawn)" measurement_type=IC50 measurement=9
molecule=CCC(=O)N=S1(=O)CCN(CC[C@H](C)Nc2ccc(S(=O)(=O)NC(=O)c3ccc(N4CCN(CC5=C(c6ccc(Cl)cc6)CC(C)(C)CC5)CC4)cc3Oc3cnc4[nH]ccc4c3)cc2[N+](=O)[O-])CC1 measurement_type=IC50 measurement=30
molecule=CC(=O)N=S1(=O)CCN(CC[C@H](C)Nc2ccc(S(=O)(=O)NC(=O)c3ccc(N4CCN(CC5=C(c6ccc(Cl)cc6)CC(C)(C)CC5)CC4)cc3Oc3cnc4[nH]ccc4c3)cc2[N+](=O)[O-])CC1 measurement_type=IC50 measurement=95
molecule="CC1(C)CCC(CN2CCN(c3ccc(C(=O)NS(=O)(=O)c4ccc(NCC5CCOCC5)c([N+](=O)[O-])c4)c(Oc4cnc5[nH]ccc5c4)c3)CC2)=C(c2ccc(Cl)cc2)C1 [Reference compound 1, reference compound]" measurement_type=IC50 measurement=57
molecule=CC1(C)CCC(CN2CCN(c3ccc(C(=O)NS(=O)(=O)c4ccc(NCCN5CCP(C)(=O)CC5)c([N+](=O)[O-])c4)c(Oc4cnc5[nH]ccc5c4)c3)CC2)=C(c2ccc(Cl)cc2)C1 measurement_type=IC50 measurement=427
molecule=C[C@@H](CCN1CCS(=O)(=NC2CC2)CC1)Nc1ccc(S(=O)(=O)NC(=O)c2ccc(N3CCN(CC4=C(c5ccc(Cl)cc5)CC(C)(C)CC4)CC3)cc2Oc2cnc3[nH]ccc3c2)cc1S(=O)(=O)C(F)(F)F measurement_type=IC50 measurement=464
molecule=C[C@@H](CN1CCS(=N)(=O)CC1)Nc1ccc(S(=O)(=O)NC(=O)c2ccc(N3CCN(CC4=C(c5ccc(Cl)cc5)CC(C)(C)CC4)CC3)cc2Oc2cnc3[nH]ccc3c2)cc1[N+](=O)[O-] measurement_type=IC50 measurement=121
molecule=C[C@@H](CCN1CCS(=O)(=NC(=O)C2CC2)CC1)Nc1ccc(S(=O)(=O)NC(=O)c2ccc(N3CCN(CC4=C(c5ccc(Cl)cc5)CC(C)(C)CC4)CC3)cc2Oc2cnc3[nH]ccc3c2)cc1[N+](=O)[O-] measurement_type=IC50 measurement=47
molecule=CC(C)C(=O)N=S1(=O)CCN(C[C@H](C)Nc2ccc(S(=O)(=O)NC(=O)c3ccc(N4CCN(CC5=C(c6ccc(Cl)cc6)CC(C)(C)CC5)CC4)cc3Oc3cnc4[nH]ccc4c3)cc2[N+](=O)[O-])CC1 measurement_type=IC50 measurement=23

---

System: DOHH2 cells
protocol: Cell proliferation assay (MTS), DOHH2 cells
Type: cell-based
condition.set: Homo sapiens, DOHH-2, 120 h, DOHH2 (DSMZ ACC 47) cell proliferation, 5000 cells/well, 120 h, MTS; mechanism-based readout of Bcl-2 inhibition; read-out: DOHH2 IC50
pIC50: −log10 of the molar value.
measurement.type: pIC50

molecule=CC(C)C(=O)N=S1(=O)CCN(CC[C@H](C)Nc2ccc(S(=O)(=O)NC(=O)c3ccc(N4CCN(CC5=C(c6ccc(Cl)cc6)CC(C)(C)CC5)CC4)cc3Oc3cnc4[nH]ccc4c3)cc2S(=O)(=O)C(F)(F)F)CC1 measurement=6.65
molecule=CC(C)OC(=O)N=S1(=O)CCN(CC[C@H](C)Nc2ccc(S(=O)(=O)NC(=O)c3ccc(N4CCN(CC5=C(c6ccc(Cl)cc6)CC(C)(C)CC5)CC4)cc3Oc3cnc4[nH]ccc4c3)cc2[N+](=O)[O-])CC1 measurement=7.46
molecule=CCC(=O)N=S1(=O)CCN(CCNc2ccc(S(=O)(=O)NC(=O)c3ccc(N4CCN(CC5=C(c6ccc(Cl)cc6)CC(C)(C)CC5)CC4)cc3Oc3cnc4[nH]ccc4c3)cc2[N+](=O)[O-])CC1 measurement=6.86
molecule="CC1(C)CCC(CN2CCN(c3ccc(C(=O)NS(=O)(=O)c4ccc(NCC5CCC(N=S6(=O)CCOCC6)CC5)c(S(=O)(=O)C(F)(F)F)c4)c(Oc4cnc5[nH]ccc5c4)c3)CC2)=C(c2ccc(Cl)cc2)C1 (stereo not shown)" measurement=6.46

From: patent US11053239B2
